Each recorded value in this set is attributed to ChEMBL document CHEMBL1806355.

Kindly state log10 of MIC for each of the entries shown.
Tested on: Escherichia coli
Experiment: Antibacterial activity against Escherichia coli KD65
Assay type: functional
Log scale reminder: MIC in mg/L, then log10 taken.

Which value of log10 of MIC has been reported for `O=C(O)c1cn(C2CC2)c2cc(N3CCNCC3)c(F)cc2c1=O` in the records?
-1.40

Which value of log10 of MIC has been reported for CC1Sc2c(C(=O)O)c(=O)c3cc(F)c(N4CCNCC4)cc3n21 (configuration not stated) in the records?
-1.21

Which value of log10 of MIC has been reported for `COc1c(N2C[C@@H]3CCCN[C@@H]3C2)c(F)cc2c(=O)c(C(=O)O)cn(C3CC3)c12` in the records?
-0.81

Which value of log10 of MIC has been reported for `O=c1ccn(C2CC2)c2cc(N3CCNCC3)c(F)cc12` in the records?
1.70

Which value of log10 of MIC has been reported for `CCSc1c(C(=O)O)c(=O)c2cc(F)c(N3CCNCC3)c(OC)c2n1C1CC1` in the records?
2.30

====

Tested on: Escherichia coli
Assay: Antibacterial activity against Escherichia coli KD65
Type: functional
readout label: MIC

# query: MIC | item `CCSc1cc(=O)c2cc(F)c(N3CCNCC3)c(OC)c2n1C1CC1` | system: Escherichia coli
> 50 µg/mL

# query: MIC | item `CCSc1cc(=O)c2cc(F)c(N3C[C@@H]4CCCN[C@@H]4C3)c(OC)c2n1C1CC1` | system: Escherichia coli
> 200 µg/mL

# query: MIC | item `COc1c(N2C[C@@H]3CCCN[C@@H]3C2)c(F)cc2c(=O)cc(SC(C)C)n(C3CC3)c12` | system: Escherichia coli
> 50 µg/mL

# query: MIC | item `CCSc1c(C(=O)O)c(=O)c2cc(F)c(N3C[C@@H]4CCCN[C@@H]4C3)c(OC)c2n1C1CC1` | system: Escherichia coli
> 50 µg/mL

# query: MIC | item `COc1c(N2C[C@@H]3CCCN[C@@H]3C2)c(F)cc2c(=O)ccn(C3CC3)c12` | system: Escherichia coli
> 200 µg/mL

# query: MIC | item `COc1c(N2CCNCC2)c(F)cc2c(=O)cc(SC(C)C)n(C3CC3)c12` | system: Escherichia coli
> 50 µg/mL

# query: MIC | item CC1Sc2cc(=O)c3cc(F)c(N4CCNCC4)cc3n21 (configuration not stated) [DESCARBOXYULIFLOXACIN] | system: Escherichia coli
> 200 µg/mL
